Data credit: paper PMC5700166

Molecular target: GST-Ap-NF-kB RHD (Exaiptasia pallida (Aiptasia), UniProt A0A913YAJ5 2-422)
Sequence: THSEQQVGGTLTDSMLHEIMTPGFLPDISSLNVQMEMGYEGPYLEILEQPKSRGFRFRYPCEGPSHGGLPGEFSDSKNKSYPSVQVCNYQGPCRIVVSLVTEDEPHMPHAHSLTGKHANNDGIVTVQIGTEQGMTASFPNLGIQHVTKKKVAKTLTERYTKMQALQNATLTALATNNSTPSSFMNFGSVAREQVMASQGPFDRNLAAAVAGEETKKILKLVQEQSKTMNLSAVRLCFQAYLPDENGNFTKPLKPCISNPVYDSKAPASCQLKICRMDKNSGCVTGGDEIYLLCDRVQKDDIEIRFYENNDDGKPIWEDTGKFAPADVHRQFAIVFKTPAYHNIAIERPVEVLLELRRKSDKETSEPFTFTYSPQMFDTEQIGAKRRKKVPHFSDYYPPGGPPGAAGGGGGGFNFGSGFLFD
Test: protein-binding microarray (PBM); PBM: ~300 nM protein, 6 mM HEPES pH 7.8, 80 mM KCl, 0.5 mM EDTA, 0.5 mM EGTA, 6% glycerol, 35 ng/ul poly-dIdC, 1% milk, 1 h, room temperature; Ap Aiptasia and Nv Nematostella (sea anemones) / Co Capsaspora / Aq Amphimedon (sponge) / Dm Drosophila / Hu human; RHD is the Rel homology domain; high values mean tight binding
Settings: dsDNA, one strand shown
Decision: binding signal compared against 5 z-score; not below it gives Criterion met, below it gives Criterion not met.

CCGATTAACATCAGGGGATTGGATGATGTTAATCGGGTCTTGATTCGCTTGACGCTGCTG: Criterion not met
CCGATTAACATCAAGGGGGTGACTGATGTTAATCGGGTCTTGATTCGCTTGACGCTGCTG: Criterion not met
CCGATTAACATCAGGGAGGGAAATGATGTTAATCGGGTCTTGATTCGCTTGACGCTGCTG: Criterion not met
CCGATTAACATCACAGTTTCCCCTGATGTTAATCGGGTCTTGATTCGCTTGACGCTGCTG: Criterion met
CCGATTAACATCAACTTGGGAAATGATGTTAATCGGGTCTTGATTCGCTTGACGCTGCTG: Criterion not met
CCGATTAACATCACCCCCGCCCCTGATGTTAATCGGGTCTTGATTCGCTTGACGCTGCTG: Criterion not met
CCGATTAACATCAGGGAAACAAATGATGTTAATCGGGTCTTGATTCGCTTGACGCTGCTG: Criterion not met
CCGATTAACATCAAGTACCCCCCTGATGTTAATCGGGTCTTGATTCGCTTGACGCTGCTG: Criterion met
CCGATTAACATCAGGGGTGGGAATGATGTTAATCGGGTCTTGATTCGCTTGACGCTGCTG: Criterion not met

Q: Kindly determine if binding signal recorded for CCGATTAACATCAAACTTTCCCATGATGTTAATCGGGTCTTGATTCGCTTGACGCTGCTG is above or exactly 5 z-score.
A: Criterion not met
